TARGET SYSTEM: PERK recombinant enzyme (cytoplasmic domain corresponding to residues 540-1115) (Homo sapiens (Human), UniProt Q9NZJ5)
Sequence (Q9NZJ5 540-1115): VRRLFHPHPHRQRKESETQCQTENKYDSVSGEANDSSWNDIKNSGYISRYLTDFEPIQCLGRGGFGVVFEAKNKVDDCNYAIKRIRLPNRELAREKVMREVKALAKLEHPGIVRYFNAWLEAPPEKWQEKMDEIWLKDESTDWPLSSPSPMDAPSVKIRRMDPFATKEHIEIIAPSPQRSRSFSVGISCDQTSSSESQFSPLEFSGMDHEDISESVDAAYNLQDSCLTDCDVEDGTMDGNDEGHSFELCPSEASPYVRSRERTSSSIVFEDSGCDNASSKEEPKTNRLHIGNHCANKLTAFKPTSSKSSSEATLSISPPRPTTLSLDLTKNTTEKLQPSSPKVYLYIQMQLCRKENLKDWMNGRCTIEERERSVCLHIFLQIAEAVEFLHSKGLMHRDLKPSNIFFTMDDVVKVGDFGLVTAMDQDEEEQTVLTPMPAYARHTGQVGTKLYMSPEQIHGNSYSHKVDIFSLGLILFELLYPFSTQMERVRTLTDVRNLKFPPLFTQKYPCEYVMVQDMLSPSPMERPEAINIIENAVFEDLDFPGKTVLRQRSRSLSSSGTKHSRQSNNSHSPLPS
ASSAY SUMMARY: PERK enzyme assay, Method 1: ADP-Glo Kinase Assay (quantification of ADP formed)
Assay type: biochemical
MEASUREMENT CONTEXT: 52 microM ATP, 8 nM PERK, 300 microM eIF2alpha peptide substrate, 60 minutes at room temperature
RECORDED METRIC: pIC50

INSERT INTO results (structure_smiles_string, measured_result) VALUES
  ('COc1ccc(S(=O)(=O)Nc2cccc(-c3nn(C)c4ncnc(N)c34)c2F)cc1Cl', 'AA (7.8 ≤ pIC50)'),
  ('COc1cc(F)c(S(=O)(=O)Nc2cccc(-c3cn(C4CCN(C)CC4)c4ncnc(N)c34)c2F)cc1Cl', 'AA (7.8 ≤ pIC50)');

###

TARGET SYSTEM: PERK recombinant enzyme (cytoplasmic domain corresponding to residues 540-1115) (Homo sapiens (Human), UniProt Q9NZJ5)
ASSAY SUMMARY: PERK enzyme assay, Method 1: ADP-Glo Kinase Assay (quantification of ADP formed)
Assay type: biochemical
MEASUREMENT CONTEXT: 52 microM ATP, 8 nM PERK, 300 microM eIF2alpha peptide substrate, 60 minutes at room temperature
RECORDED METRIC: IC50

Answered cases to consult:
INSERT INTO assay_data (structure_smiles_string, recorded_metric, measured_result) VALUES
  ('Cn1cc(-c2cccc(NS(=O)(=O)c3ccc(Cl)c(Cl)c3)c2F)c2c(N)ncnc21', 'IC50', '15.8 to 50.1 nM'),
  ('Cn1cc(-c2cccc(NS(=O)(=O)c3ccc(Br)cc3F)c2F)c2c(N)ncnc21', 'IC50', '15.8 to 50.1 nM'),
  ('COc1ccc(S(=O)(=O)Nc2cccc(-c3cn(C)c4ncnc(N)c34)c2F)cc1C#N', 'IC50', '15.8 to 50.1 nM'),
  ('COc1ccc(S(=O)(=O)Nc2cccc(-c3cn(C4CCN(C(C)C)CC4)c4ncnc(N)c34)c2F)cc1C', 'IC50', '15.8 to 50.1 nM'),
  ('CCn1cc(-c2cccc(NS(=O)(=O)c3cc(Cl)c(OC)cc3F)c2F)c2c(N)ncnc21', 'IC50', '15.8 to 50.1 nM'),
  ('COc1ccc(S(=O)(=O)Nc2cccc(-c3nn(C)c4ncnc(N)c34)c2F)cc1C', 'IC50', '15.8 to 50.1 nM');

Request: Requested field: IC50. Item: `COc1ccc(S(=O)(=O)Nc2cccc(-c3cn(C)c4ncnc(N)c34)c2F)cc1C`
Response: 15.8 to 50.1 nM

Request: Requested field: IC50. Item: `COc1cc(F)c(S(=O)(=O)Nc2cccc(-c3csc4ccnc(N)c34)c2F)cc1Cl`
Response: 50.1 to 158 nM

Request: Requested field: IC50. Item: `Cn1cc(-c2cccc(NS(=O)(=O)c3ccc(Cl)s3)c2F)c2c(N)ncnc21`
Response: 15.8 to 50.1 nM

Request: Requested field: IC50. Item: `COc1ccc(S(=O)(=O)Nc2cccc(-c3cn(C)c4ncnc(N)c34)c2F)cc1OC`
Response: 50.1 to 158 nM

Request: Requested field: IC50. Item: `COc1ccc(S(=O)(=O)Nc2cccc(-c3cn(C4CCNCC4)c4ncnc(N)c34)c2F)cc1C`
Response: 15.8 to 50.1 nM

Request: Requested field: IC50. Item: `Cn1cc(-c2cccc(NS(=O)(=O)c3ccc(C(F)(F)F)cc3)c2F)c2c(N)ncnc21`
Response: 50.1 to 158 nM

Request: Requested field: IC50. Item: `Cn1cc(-c2cccc(NS(=O)(=O)c3cc(F)c(F)c(F)c3)c2F)c2c(N)ncnc21`
Response: 15.8 to 50.1 nM
